# assay_info: qHTS of pediatric cancer cell lines to identify multiple opportunities for drug repurposing: Primary screen for SK-N-MC cells (AID 1347093)
# settings: SK-N-MC viability, CellTiter-Glo luminescence, 48 h; series mostly up to 46 µM
Results filed as inconclusive are left out. Calls of active or inactive are those of the source. The call rests on the fitted dose curve; in most records, active means well fitted cell-killing curve with a large enough effect; inconclusive means small, poorly fitted or top-dose-only effect; inactive means no such curve, though single readings can be large or run the other way.
Labels: active, inactive

| compound | discrete_label |
| --- | --- |
| C[C@@H](O)[C@H]1C(=O)N2C(C(=O)O)=C(S[C@@H]3CN[C@H](C(=O)N(C)C)C3)[C@H](C)[C@H]12 | inactive |
| O=C(O)c1cc(O)c2c(c1)C(=O)c1cccc(O)c1C2=O | active |
| CC(=O)Oc1cc2c(s1)CCN(C(C(=O)C1CC1)c1ccccc1F)C2 (stereo not drawn) | active |
| C=C1C(=O)[C@@]23C(CC[C@@H]1[C@H]2O)[C@@]12CO[C@]3(O)[C@@H](O)[C@@H]1C(C)(C)CC[C@@H]2O (stereo partly drawn) | active |
| CCC(=O)NC[C@H](Cc1ccc(OCCc2nc(-c3ccccc3)oc2C)cc1)NC(C)=CC(=O)c1ccc(C(F)(F)F)cc1 | active |
| O=C(O)c1cc(-c2ccccc2)nc2ccccc12 | active |
| CO[C@H]1C=CC=C(C)C(=O)NC2=CC(=O)C(NCCN(C)C)=C(C[C@@H](C)C[C@H](OC)[C@@H](O)[C@@H](C)C=C(C)[C@@H]1OC(N)=O)C2=O | active |
| CON=C(C(=O)N[C@@H]1C(=O)N2C(C(=O)OCOC(=O)C(C)(C)C)=C(C=Cc3scnc3C)CS[C@H]12)c1csc(N)n1 | active |

* * *

# assay_info: Quantitative High-Throughput drug screen in 47 multiple myeloma cell lines against the NCATS MIPE library collection: KMS11_JCRBsus cell viability assay (AID 1919873); further: nearly all actives have a fitted effect of over 50% in size
# settings: KMS11 myeloma viability, CellTiter-Glo ATP luminescence, 48 h; series mostly up to 45.8 µM
Records with an inconclusive call do not appear. Active and inactive are the calls of the source. Calls come from the whole dose curve; as a rule, active = well fitted cell-killing curve with a large enough effect; inconclusive = small, poorly fitted or top-dose-only effect, or effect the other way; inactive = no such curve, though single readings can be large or run the other way.
Labels: active, inactive

| molecule | discrete_label |
| --- | --- |
| Oc1ccc(C2CCN(c3ccnc4ccccc34)CC2)cc1O | active |
| Cc1ccc(C(C)(O)c2nc3ccccc3s2)c(C)c1 (stereo not given) | inactive |
| NC1=N[C@@]2(c3cc(NC(=O)c4ccc(F)cn4)ccc3F)COC[C@@H]2CS1 | active |
| Cc1ccc([C@@H]2O[C@H](CO)[C@@H](O)[C@H](O)[C@@H]2O)cc1Cc1ccc(-c2ccc(F)cc2)s1 | active |
| CC1(C)S[C@H]2[C@H](NC(=O)[C@@H](N)c3ccc(O)cc3)C(=O)N2[C@@H]1C(=O)O | active |

* * *

# Test system: UISO
# assay_info: qHTS assay to identify novel small-molecules to repurpose for Merkel cell carcinoma treatment (AID 1296009); further: nearly all actives have a fitted effect of over 60% in size
# settings: MCC and control cell lines, CellTiter-Glo viability, 72 h; series mostly up to 46 µM
# From the text: MCC is a rare and aggressive neuroendocrine skin cancer with limited treatment options. Approximately 80% of MCCs have the Merkel cell polyomavirus (MCPyV) DNA integrated into the host genome (virus-positive: VP-MCC) and viral oncogenes drive oncogenesis. The remaining MCCs are virus-negative (VN-MCC) and are caused by UV mutagenesis. […] Using cell viability as a readout (CellTiter-Glo assay) we found both overlapping and distinct drugs that can be repurposed for the treatment of VP-MCC and VN-MCC. […]
Records with an inconclusive call do not appear. Active and inactive are the calls of the source. Calls follow the shape of the dose curve; as a rule, active = well fitted inhibition curve with a large enough effect; inconclusive = small, poorly fitted or top-dose-only effect; inactive = flat fitted curve, though single readings scatter.
Labels: active, inactive

| structure_notation | discrete_label |
| --- | --- |
| CCC(=O)O[C@]1(C(=O)CO)CC[C@H]2[C@@H]3CCC4=CC(=O)CC[C@]4(C)[C@@H]3CC[C@@]21C | inactive |
| CO[C@H]1C=CC=C(C)C(=O)NC2=CC(=O)C(NCCN(C)C)=C(C[C@@H](C)C[C@H](OC)[C@@H](O)[C@@H](C)C=C(C)[C@@H]1OC(N)=O)C2=O | active |
| N#Cc1ccc(NC(=O)Nc2ccccc2Br)c2n[nH]nc12 | inactive |
| COc1ccc(-c2nc(N3CCOCC3)c3sc(CN(C)c4ncc(C(=O)NO)cn4)cc3n2)cn1 | active |
| NS(=O)(=O)c1ccc(NC2=CC(=O)c3ccccc3C2=O)cc1 | active |

* * *

# assay_info: Quantitative High-Throughput drug screen in 47 multiple myeloma cell lines against the NCATS MIPE library collection: PE2_PLB cell viability assay (AID 1919869); further: nearly all actives have a fitted effect of over 35% in size; further: potency means the concentration at half of the fitted maximal effect
# settings: PE2_PLB myeloma cells viability, ATP luminescence, 48 h; series mostly up to 45.8 µM
Inconclusive results are not listed. Calls of active or inactive are those of the source. The call rests on the fitted dose curve; in most records, active means well fitted cell-killing curve with a large enough effect; inconclusive means small, poorly fitted or top-dose-only effect, or effect the other way; inactive means no such curve, though single readings can be large or run the other way.
readout_kind: Potency

| compound | readout_kind | value_reported |
| --- | --- | --- |
| Nc1ncnc2c1ncn2[C@@H]1O[C@@H](CO)[C@H](O)[C@H]1O | Potency | inactive |
| Cc1c(O)cccc1C(=O)N[C@@H](CSc1ccccc1)[C@H](O)CN1C[C@H]2CCCC[C@@H]2C[C@@H]1C(=O)NC(C)(C)C | Potency | 26.4 µM (active) |
| Cc1ccc(C(=O)Nc2cccc(C(F)(F)F)c2)cc1Nc1nc(-c2cccnc2)nc2c1cnn2C | Potency | 9.35 µM (active) |
| C[C@H]1[C@H](NC(=O)C(=NOC(C)(C)C(=O)O)c2csc(N)n2)C(=O)N1S(=O)(=O)O | Potency | inactive |
| Cn1c(N2CCCCS2(=O)=O)nc(C(=O)NCc2ccc(F)cc2)c(O)c1=O | Potency | inactive |
| Cc1cc(OCCCc2c(C(=O)O)n(Cc3cccnc3)c3c(-c4c(COc5ccc(N6CCN([S+](C)(=O)[O-])CC6)cc5)nn(C)c4C)cccc23)cc(C)c1Cl | Potency | 18.7 µM (active) |
| CC(C)(C)C(=O)Oc1ccc2c(c1)nc(NC(=O)c1cccc([N+](=O)[O-])c1)n2CCCO | Potency | inactive |
| c1cc(-c2sc(-c3ccncc3)c(-c3ccncc3)c2-c2ccncc2)ccn1 | Potency | 14.8 µM (active) |
| O=c1cc(CN2CCOCC2)occ1OCCCCCSc1ccnc2cc(C(F)(F)F)ccc12 | Potency | 7.43 µM (active) |
| Nc1ncnc2c1nc(Cl)n2[C@@H]1O[C@H](CO)[C@@H](O)[C@@H]1O | Potency | 0.235 µM (active) |
| CC[C@H]1OC(=O)[C@H](C)[C@@H](O[C@H]2C[C@@](C)(OC)[C@@H](O)[C@H](C)O2)[C@H](C)[C@@H](O[C@@H]2O[C@H](C)C[C@H](N(C)C)[C@@H]2O)[C@](C)(O)C[C@@H](C)CN(C)[C@H](C)[C@@H](O)[C@]1(C)O | Potency | inactive |
| CN1CCN(CCOc2cc(OC3CCOCC3)c3c(Nc4c(Cl)ccc5c4OCO5)ncnc3c2)CC1 | Potency | 23.5 µM (active) |
| C=CCc1ccc(O)c(-c2ccc(O)c(CC=C)c2)c1 | Potency | 18.7 µM (active) |
| CO[C@H]1C[C@@H]2CC[C@@H](C)[C@@](O)(O2)C(=O)C(=O)N2CCCC[C@@H]2C(=O)O[C@H]([C@H](C)C[C@@H]2CC[C@H](OCCO)[C@H](OC)C2)CC(=O)[C@H](C)C=C(C)[C@@H](O)[C@@H](OC)C(=O)[C@H](C)C[C@H](C)C=CC=CC=C1C | Potency | 1.48 µM (active) |
| CC(=O)N(C)C1(c2ccccc2)CCN(CCC[C@]2(c3ccc(Cl)c(Cl)c3)CCCN(C(=O)c3ccccc3)C2)CC1 | Potency | 20.9 µM (active) |
| O=C(O)C(O)Cc1ccc(O)c(O)c1 (stereo unspecified) | Potency | 16.6 µM (active) |
| O=C1NC(=O)C(=Cc2ccc3c(c2)OC(F)(F)O3)S1 | Potency | 20.9 µM (active) |
| Cc1ccc([C@@H]2O[C@H](CO)[C@@H](O)[C@H](O)[C@@H]2O)cc1Cc1ccc(-c2ccc(F)cc2)s1 | Potency | 18.7 µM (active) |
| CCOC(=O)C1=C(N)Oc2ccc(Br)cc2C1C(C#N)C(=O)OCC (stereo unspecified) | Potency | 20.9 µM (active) |
| O=C1c2ccccc2-[n+]2ccc3c([nH]c4ccccc43)c21 | Potency | 1.87 µM (active) |
| CC(C)=CC[C@@H](O)C1=CC(=O)c2c(O)ccc(O)c2C1=O | Potency | 0.264 µM (active) |
| COc1cccc2c1CCCC2CCCN1CCN(C2CCCCC2)CC1 (stereo unspecified) | Potency | 23.5 µM (active) |
| CCCCCN(C)CCC(O)(P(=O)(O)O)P(=O)(O)O | Potency | inactive |
| O=C(O)c1ccccc1C(=O)Nc1ccc(-c2ccccc2)cc1 | Potency | inactive |
| CO[C@@H](C(=O)N1Cc2[nH]nc(NC(=O)c3ccc(N4CCN(C)CC4)cc3)c2C1)c1ccccc1 | Potency | 20.9 µM (active) |
| C=C1C(=O)[C@@]23C(CC[C@@H]1[C@H]2O)[C@@]12CO[C@]3(O)[C@@H](O)[C@@H]1C(C)(C)CC[C@@H]2O (stereo partly specified) | Potency | 1.18 µM (active) |
| COc1ccc(C2CC(c3ccccc3)=NN2c2ccc(S(N)(=O)=O)cc2)cc1 (stereo unspecified) | Potency | 23.5 µM (active) |
| N#CC1(c2ccc(NC(=O)c3cccnc3NCc3ccncc3)cc2)CCCC1 | Potency | 18.7 µM (active) |
| C[C@]12CC[C@@H]3c4ccc(O)cc4C[C@@H](CCCCCCCCCS(=O)CCCC(F)(F)C(F)(F)F)[C@H]3[C@H]1CC[C@H]2O (stereo partly specified) | Potency | inactive |
| COc1ccc(-n2c(C)c([N+](=O)[O-])c3ccc(O)cc32)cc1 | Potency | 4.69 µM (active) |
| NS(=O)(=O)c1cccc2c1C(=O)c1cccc(O)c1C2=O | Potency | 0.187 µM (active) |
| CC1(C)O[C@H]2C[C@@H]3[C@H]4CCC5=CC(=O)C=C[C@]5(C)[C@@]4(F)[C@@H](O)C[C@]3(C)[C@]2(C(=O)CO)O1 | Potency | inactive |
| COc1cc2ncnc(-n3nc(-c4ccccn4)nc3N)c2cc1OC | Potency | 3.72 µM (active) |
| CN(C)c1cc(NC(=O)CNC(C)(C)C)c(O)c2c1C[C@@H]1C[C@H]3[C@H](N(C)C)C(=O)C(C(N)=O)=C(O)[C@@]3(O)C(=O)C1=C2O | Potency | inactive |
| COc1ccc2cccc(CCNC(C)=O)c2c1 | Potency | inactive |
| O=c1ccn([C@@H]2O[C@H](CO)[C@H](O)[C@H]2O)c(=O)[nH]1 | Potency | inactive |
